- system name: ENPP1 (Homo sapiens)
- Sequence (P22413 whole entry, species assumed): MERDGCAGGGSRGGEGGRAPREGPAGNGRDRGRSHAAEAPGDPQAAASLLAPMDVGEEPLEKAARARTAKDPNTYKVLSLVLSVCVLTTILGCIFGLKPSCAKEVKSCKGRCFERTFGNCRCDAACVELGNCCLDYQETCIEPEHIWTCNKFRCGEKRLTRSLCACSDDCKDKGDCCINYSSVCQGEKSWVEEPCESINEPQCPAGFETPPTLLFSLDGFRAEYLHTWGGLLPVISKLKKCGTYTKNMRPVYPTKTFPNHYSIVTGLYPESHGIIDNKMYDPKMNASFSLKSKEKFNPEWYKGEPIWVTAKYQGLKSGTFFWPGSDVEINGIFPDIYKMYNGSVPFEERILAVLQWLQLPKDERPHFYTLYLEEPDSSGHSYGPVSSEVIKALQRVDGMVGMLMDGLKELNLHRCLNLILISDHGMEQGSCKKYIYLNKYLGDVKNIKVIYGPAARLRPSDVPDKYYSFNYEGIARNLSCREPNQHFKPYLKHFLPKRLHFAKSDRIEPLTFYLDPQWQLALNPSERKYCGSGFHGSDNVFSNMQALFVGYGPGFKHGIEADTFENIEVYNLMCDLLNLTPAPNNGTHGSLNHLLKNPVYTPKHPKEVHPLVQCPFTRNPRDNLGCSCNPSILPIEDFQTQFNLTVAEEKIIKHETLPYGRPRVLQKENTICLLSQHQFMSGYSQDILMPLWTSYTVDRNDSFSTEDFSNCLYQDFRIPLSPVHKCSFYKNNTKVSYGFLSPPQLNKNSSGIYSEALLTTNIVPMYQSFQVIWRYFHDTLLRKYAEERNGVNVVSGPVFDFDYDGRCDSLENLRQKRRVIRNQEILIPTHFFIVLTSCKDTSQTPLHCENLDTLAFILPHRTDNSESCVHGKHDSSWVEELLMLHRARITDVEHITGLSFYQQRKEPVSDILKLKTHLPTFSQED
- test summary: Measurement of pNP-TMP hydrolysis by ENPP1
- Format: biochemical
- condition info: pNP-TMP substrate 500 μM, Km 232 μM; Ki from IC50 by Cheng-Prusoff
- Protocol: Measurement of pNP-TMP hydrolysis by ENPP1 p-Nitrophenyl thymidine 5′-monophosphate (pNP-TMP) is a synthesized substrate for ENPP1. The ENPP1 enzyme activity assay with pNP-TMP substrate was conducted as follows: […] For each inhibitor, the specific ENPP1 activity was calculated using the following equation: ENPP1 activity (pmol/min/μg)=Adjusted Vmax (OD405 nm/min) X conversion factor (pmol/OD405 nm)/amount of enzyme (μg) […]
measurement type: Ki

In [3]: df
Out[3]:
                                   molecule           system_name  measurement_type            value
0  COc1nccc2c(OCc3cc(F)cc([S@](C)(=N)=O)c3)ccnc12 (single isomer, unassigned) [Example 70]  ENPP1 (Homo sapiens)                Ki     10 to 100 nM
1  N=S(=O)(c1cc(F)cc(COc2ccnc3c(OCF)nccc23)c1)C1CC1 (centres unmarked) [Example 69]  ENPP1 (Homo sapiens)                Ki          < 10 nM
2  CS(=N)(=O)CCC1CCN(c2ccnc3c(OCF)nccc23)CC1 (centres unmarked) [Example 65]  ENPP1 (Homo sapiens)                Ki          < 10 nM
3  N=[S@@](=O)(c1cccc(COc2ccnc3c(OCF)nccc23)c1)C1CC1 (single isomer, unassigned) [Example 43]  ENPP1 (Homo sapiens)                Ki          < 10 nM
4  CN=S(=O)(c1cccc(COc2ccnc3c(OC)nccc23)c1)C1CC1 (centres unmarked) [Example 55]  ENPP1 (Homo sapiens)                Ki  100 to 10000 nM
5  N=S(=O)(c1cccc(COc2ccnc3c(OC4CC4)nccc23)c1)C1CC1 (centres unmarked) [Example 60]  ENPP1 (Homo sapiens)                Ki  100 to 10000 nM
6  COc1nccc2c(OCc3cc(S(=N)(=O)C4CC4)ccc3F)ccnc12 (centres unmarked) [Example 59]  ENPP1 (Homo sapiens)                Ki          < 10 nM
7  CN=S(C)(=O)CC1CC2(C1)CN(c1ccnc3c(OC)nccc13)C2 (centres unmarked) [Example 58]  ENPP1 (Homo sapiens)                Ki  100 to 10000 nM
